Tested on: Yersinia pestis
measurement-notes: microbe, parasite or virus in culture
Type: cell-based
condition-description: read-out: MIC Y.p.
Where a name gives a salt, the structure may show the parent alone.
So I've got a bunch of molecules here, and I need their MIC values.

Take a look at these entries with their results.
>  <molecule>
CN[C@@H]1[C@H](O)[C@H](NC)[C@H]2O[C@]3(O)[C@H](O[C@@H]2[C@H]1O)O[C@H](C)C[C@@]3(O)CNCc1ccccc1F [compound 14, Trihydrochloride]

>  <MIC>
> 200 mg/L

$$$$
>  <molecule>
CCOc1ccc(CNC[C@]2(O)C[C@@H](C)O[C@H]3O[C@@H]4[C@@H](O)[C@H](NC)[C@H](O)[C@H](NC)[C@H]4O[C@]32O)cc1 [compound 4, Trihydrochloride]

>  <MIC>
> 200 mg/L

$$$$

Query (molecule): CCc1ccc(CNC[C@]2(O)C[C@@H](C)O[C@H]3O[C@@H]4[C@@H](O)[C@H](NC)[C@H](O)[C@H](NC)[C@H]4O[C@]32O)cc1 [compound 3, Trihydrochloride] ; field requested: MIC > 200 mg/L

---

System: Enterococcus faecalis (ATCC 33186)
measurement-notes: MIC determination, microbroth dilution
Assay type: cell-based
condition-description: ATCC33186; Enterococcus faecalis (ATCC 33186); read-out: MIC E.f.
Where a name gives a salt, the structure may show the parent alone.
So I've got a bunch of compounds here, and I need their MIC values.

Take a look at these entries with their results.
>  <compound>
CN[C@@H]1[C@H](O)[C@H](NC)[C@H]2O[C@]3(O)[C@H](O[C@@H]2[C@H]1O)O[C@H](C)C[C@]3(O)CNCc1ccc(OC(F)(F)F)cc1 (stereo in doubt) [compound 26, Trihydrochloride]

>  <tgt>
Enterococcus faecalis (ATCC 33186)

>  <MIC>
> 200 µg/mL

$$$$
>  <compound>
CCOc1ccc(CNC[C@]2(O)C[C@@H](C)O[C@H]3O[C@@H]4[C@@H](O)[C@H](NC)[C@H](O)[C@H](NC)[C@H]4O[C@]32O)cc1 [compound 4, Trihydrochloride]

>  <tgt>
Enterococcus faecalis (ATCC 33186)

>  <MIC>
12.5 to 25 µg/mL

$$$$
>  <compound>
CN[C@@H]1[C@H](O)[C@H](NC)[C@H]2O[C@]3(O)[C@H](O[C@@H]2[C@H]1O)O[C@H](C)C[C@@]3(O)CNCc1ccc(F)cc1 [compound 2, Trihydrochloride]

>  <tgt>
Enterococcus faecalis (ATCC 33186)

>  <MIC>
12.5 to 25 µg/mL

$$$$

With those in mind, consider the next compound.
Query (compound): CN[C@@H]1[C@H](O)[C@H](NC)[C@H]2O[C@]3(O)[C@H](O[C@@H]2[C@H]1O)O[C@H](C)C[C@@]3(O)CNCc1ccc(OC(F)(F)F)cc1 [compound 11, Trihydrochloride] ; field requested: MIC 25 to 50 µg/mL

---

So I've got a bunch of compounds here, and I need their zone of inhibition at 4 µg/disc values.
Tested on: Neisseria meningitides (ATCC 13077)
measurement-notes: Disc diffusion assay
Type: cell-based
condition-description: ATCC13077, 4 μg per disc, read-out: Zone of inhibition N.m.
Where a name gives a salt, the structure may show the parent alone.

Take a look at these entries with their results.
>  <compound>
CN[C@@H]1[C@H](O)[C@H](NC)[C@H]2O[C@]3(O)[C@H](O[C@@H]2[C@H]1O)O[C@H](C)C[C@@]3(O)CNCc1ccc(OC(F)(F)F)cc1 [compound 11, Trihydrochloride]

>  <measurement-label>
zone of inhibition at 4 µg/disc

>  <result>
18 to 19 mm

$$$$
>  <compound>
CN[C@@H]1[C@H](O)[C@H](NC)[C@H]2O[C@@]3(O)C(=O)C[C@@H](C)O[C@H]3O[C@@H]2[C@H]1O [SPC, reference compound]

>  <measurement-label>
zone of inhibition at 4 µg/disc

>  <result>
13 to 14 mm

$$$$

Would you mind listing zone of inhibition at 4 µg/disc for each of the following compounds?
1. CN[C@@H]1[C@H](O)[C@H](NC)[C@H]2O[C@]3(O)[C@H](O[C@@H]2[C@H]1O)O[C@H](C)C[C@@]3(O)CNc1ccc(OC)cc1 [compound 29, Trihydrochloride]
2. CN[C@@H]1[C@H](O)[C@H](NC)[C@H]2O[C@]3(O)[C@H](O[C@@H]2[C@H]1O)O[C@H](C)C[C@@]3(O)CNCc1ccccc1 [compound 1, Trihydrochloride]
3. CN[C@@H]1[C@H](O)[C@H](NC)[C@H]2O[C@]3(O)[C@H](O[C@@H]2[C@H]1O)O[C@H](C)C[C@@]3(O)CNCc1ccc(F)cc1 [compound 2, Trihydrochloride]
4. CN[C@@H]1[C@H](O)[C@H](NC)[C@H]2O[C@]3(O)[C@H](O[C@@H]2[C@H]1O)O[C@H](C)C[C@@]3(O)CNCCc1ccc(Cl)cc1 [compound 54, Trihydrobromide]

["7 mm", "16 to 22 mm", "19 to 20 mm", "7 mm"]

---

Tested on: Staphylococcus aureus (ATCC 29213)
measurement-notes: MIC determination, microbroth dilution
Assay type: cell-based
condition-description: ATCC29213; Staphylococcus aureus (ATCC 29213); read-out: MIC S.a.
Where a name gives a salt, the structure may show the parent alone.
So I've got a bunch of compounds here, and I need their MIC values.
Answers are plain numbers, in µg/mL.

>  <compound>
CN[C@@H]1[C@H](O)[C@H](NC)C2O[C@]3(O)C(OC2[C@H]1O)O[C@H](C)C[C@@]3(O)CNCC(C)c1ccccc1 (stereo partly drawn)

>  <result-units>
µg/mL

>  <number>
50

$$$$
>  <compound>
CN[C@@H]1[C@H](O)[C@H](NC)C2O[C@]3(O)C(OC2[C@H]1O)O[C@H](C)C[C@@]3(O)CNCc1ccc(OC)c2c1CCCC2 (stereo partly drawn)

>  <result-units>
µg/mL

>  <number>
100

$$$$
>  <compound>
CN[C@@H]1[C@H](O)[C@H](NC)[C@H]2O[C@]3(O)[C@H](O[C@@H]2[C@H]1O)O[C@H](C)C[C@@]3(O)CNCc1ccc(OC(F)(F)F)cc1 [compound 11, Trihydrochloride]

>  <result-units>
µg/mL

>  <number>
100

$$$$

With those in mind, consider the next compound.
Query (compound): CN[C@@H]1[C@H](O)[C@H](NC)[C@H]2O[C@]3(O)[C@H](O[C@@H]2[C@H]1O)O[C@H](C)C[C@@]3(O)CNCc1ccccc1 [compound 1, Trihydrochloride] ; field requested: MIC 50

---

So I've got a bunch of molecules here, and I need their MIC values.
Tested on: Burkholderia cepacia (ATCC 25416)
measurement-notes: MIC determination, microbroth dilution
Format: cell-based
condition-description: Burkholderia cepacia, ATCC25416, read-out: MIC B.c., Burkholderia cepacia (ATCC 25416)
Counter-ions that a name gives are not always drawn.

>  <molecule>
CN[C@@H]1[C@H](O)[C@H](NC)[C@H]2O[C@]3(O)[C@H](O[C@@H]2[C@H]1O)O[C@H](C)C[C@@]3(O)CNCc1ccc(C(F)(F)F)cc1 [compound 5, Trihydrochloride]

>  <MIC>
100 µg/mL

$$$$
>  <molecule>
CCOc1ccc(CNC[C@]2(O)C[C@@H](C)O[C@H]3O[C@@H]4[C@@H](O)[C@H](NC)[C@H](O)[C@H](NC)[C@H]4O[C@]32O)cc1 [compound 4, Trihydrochloride]

>  <MIC>
> 200 µg/mL

$$$$
>  <molecule>
CN[C@@H]1[C@H](O)[C@H](NC)[C@H]2O[C@]3(O)[C@H](O[C@@H]2[C@H]1O)O[C@H](C)C[C@@]3(O)CNCc1ccccc1OC(F)(F)F [compound 10, Trihydrochloride]

>  <MIC>
> 200 µg/mL

$$$$
>  <molecule>
CN[C@@H]1[C@H](O)[C@H](NC)[C@H]2O[C@]3(O)[C@H](O[C@@H]2[C@H]1O)O[C@H](C)C[C@@]3(O)CNCc1ccc(C)cc1C [compound 24, Trihydrochloride]

>  <MIC>
> 200 µg/mL

$$$$
>  <molecule>
CN[C@@H]1[C@H](O)[C@H](NC)[C@H]2O[C@]3(O)[C@H](O[C@@H]2[C@H]1O)O[C@H](C)C[C@]3(O)CNCc1ccc(F)cc1 [compound 28, Trihydrochloride]

>  <MIC>
> 200 µg/mL

$$$$

With those in mind, consider the next molecule.
Query (molecule): CN[C@@H]1[C@H](O)[C@H](NC)[C@H]2O[C@]3(O)[C@H](O[C@@H]2[C@H]1O)O[C@H](C)C[C@@]3(O)CNCc1ccccc1F [compound 14, Trihydrochloride] ; field requested: MIC 100 to 200 µg/mL

---

So I've got a bunch of compounds here, and I need their MIC values.
Tested on: Staphylococcus aureus (ATCC 29213)
measurement-notes: MIC determination, microbroth dilution
Format: cell-based
condition-description: ATCC29213; Staphylococcus aureus (ATCC 29213); read-out: MIC S.a.
Structures can show the parent of a compound that is named as a salt.
Numbers only, in µg/mL.

Take a look at these entries with their results.
>  <compound>
CN[C@@H]1[C@H](O)[C@H](NC)C2O[C@]3(O)C(OC2[C@H]1O)O[C@H](C)C[C@@]3(O)CNCc1cccc(C(F)(F)F)c1 (stereo partly shown)

>  <number>
50

$$$$
>  <compound>
CN[C@@H]1[C@H](O)[C@H](NC)[C@H]2O[C@]3(O)[C@H](O[C@@H]2[C@H]1O)O[C@H](C)C[C@@]3(O)CNCc1ccc(C(F)(F)F)cc1 [compound 5, Trihydrochloride]

>  <number>
50

$$$$

With those in mind, consider the next compound.
GET /values?readout=MIC&system=Staphylococcus aureus (ATCC 29213)&item= CN[C@@H]1[C@H](O)[C@H](NC)[C@H]2O[C@]3(O)[C@H](O[C@@H]2[C@H]1O)O[C@H](C)C[C@@]3(O)CNCCc1cccs1 [compound 61, trihydrobromide] 12.5
